Test system: Acinetobacter baumannii
Assay: Potentiation of rifampicin antibacterial activity against Acinetobacter baumannii AB5075 assessed as rifampicin MIC at 30 uM incubated for 16 hrs by broth microdilution method
Type: functional
OBSERVABLE: MIC (ng/mL)
Use ng/mL as the unit, but write only the number.

Req: Tell me the measured MIC of Nc1nc(-c2ccc(NC(=O)Nc3cccc(-c4c[nH]c(N)n4)c3)cc2)c[nH]1 , please.
Resp: 31

Req: Consider the compound shown here: Cl.Cl.Nc1nc(-c2ccc(NC(=O)Nc3cccc(-c4c[nH]c(N)n4)c3F)cc2F)c[nH]1 What is its recorded MIC?
Resp: 1

Req: Sample Nc1nc(-c2ccc(NC(=O)Nc3ccc(-c4c[nH]c(N)n4)cc3)cc2)c[nH]1 — what was its MIC?
Resp: 7

Req: Look up MIC: Cl.Cl.Nc1nc(-c2cc(F)cc(NC(=O)Nc3cc(F)cc(-c4c[nH]c(N)n4)c3)c2)c[nH]1
Resp: 3

Req: Need MIC of Cl.Cl.Nc1nc(-c2ccc(NC(=O)Nc3ccc(-c4c[nH]c(N)n4)c(F)c3)cc2F)c[nH]1 , thanks.
Resp: 125

Req: Recorded MIC of Nc1nc(-c2cccc(NC(=O)Nc3cccc(-c4c[nH]c(N)n4)c3)c2)c[nH]1 , please.
Resp: 3
